Would you kindly list melting point for each of these compounds?

> print(dat)
                                   compound   readout.kind     data.value
1  CC(=O)Nc1ccc(C)cc1CNc1ccccc1Oc1ccc(Cl)cc1 [Compound 8]  melting point  138 to 140 °C

Hi, could you look up melting point for each item in my list?
1. CC(=O)Nc1c(CNc2ccccc2Oc2ccc(Cl)cc2)ccc2ccccc12 [Compound 7]
2. CC(=O)Nc1ccccc1CNc1cc(F)ccc1Oc1ccc(Cl)cc1 [Compound 3]
3. CC(=O)Nc1ccc(CNc2ccccc2Oc2ccc(Cl)cc2)cc1 [Compound 18]
4. COc1cc(CNc2ccccc2Oc2ccc(Cl)cc2Cl)c(NC(C)=O)cc1OC [Compound 6]
5. C=CC[C@H](Nc1ccccc1Oc1ccc(Cl)cc1)c1ccccc1NC(C)=O [Compound 32]
6. CC(=O)Nc1ccc(Cl)cc1CNc1ccccc1Oc1ccc(Cl)cc1Cl [Compound 10]
7. CC(=O)Nc1ccc(Cl)cc1CNc1ccccc1Oc1ccc(OC(F)(F)F)cc1 [Compound 11]
8. CC(=O)Nc1ccccc1CNc1ccccc1Oc1ccc(OC(F)(F)F)cc1 [Compound 2]

["153 to 155 °C", "178 to 180 °C", "137 to 139 °C", "128 to 131 °C", "139 to 141 °C", "135 to 137 °C", "121 to 123 °C", "98 to 100 °C"]

----------
Assayed Target: 17β-HSD3 (Homo sapiens)
Construct: expressed in transfected cells; host or cells: human 293-EBNA cells, stably transfected
Sequence (P37058 1-310): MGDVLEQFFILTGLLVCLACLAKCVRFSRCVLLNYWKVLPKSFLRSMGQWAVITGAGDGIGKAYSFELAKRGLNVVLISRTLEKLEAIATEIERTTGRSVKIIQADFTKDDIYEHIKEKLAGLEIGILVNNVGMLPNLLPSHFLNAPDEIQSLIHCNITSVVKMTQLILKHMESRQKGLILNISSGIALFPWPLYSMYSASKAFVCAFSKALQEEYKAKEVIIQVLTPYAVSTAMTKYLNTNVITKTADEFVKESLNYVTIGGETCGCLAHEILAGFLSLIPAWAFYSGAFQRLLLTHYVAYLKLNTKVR
Assay Name: Assay for 17β-HSD3 activity (TLC assay) in 293-EBNA cells stably transfected with 17β-HSD3
Assay type: cell-based
Condition Description: 293-EBNA, 10 μM; TLC assay; mean of at least two measurements, typically SD ±5%
Answer each item with its documented inhibition at 10 µM.

Consider the reported inhibition at 10 µM for these compounds:
> print(dat)
                                   compound  data.value
1  CC(=O)Nc1ccccc1CNc1cc(F)ccc1Oc1ccc(Cl)cc1   60 to 70%
2  CC(=O)Nc1ccc(Cl)cc1CNc1ccccc1Oc1ccc(Cl)cc1Cl       < 20%
3  CC(=O)Nc1cccc(CNc2ccccc2Oc2ccc(Cl)cc2)c1         53%
4  CC(=O)Nc1ccc(Cl)cc1CNc1ccccc1Oc1ccc(Cl)cc1         97%
5  CC(=O)Nc1ccccc1CNc1ccccc1Oc1ccc(OC(F)(F)F)cc1   60 to 70%

Take each entry in turn and give its inhibition at 10 µM.
1. CC(=O)N(C)c1ccccc1CN(C)c1ccccc1Oc1ccc(Cl)cc1
2. CC(=O)Nc1ccccc1CN(C(C)=O)c1ccccc1Oc1ccc(Cl)cc1

1. 60 to 70%
2. < 20%

Provide inhibition at 10 µM values for the following items, in order.
1. CCNc1ccccc1C(C)Nc1ccccc1Oc1ccc(Cl)cc1 (stereo not drawn)
2. CC(=O)Nc1ccc(CNc2ccccc2Oc2ccc(Cl)cc2)cc1

20 to 60%
29%

Reference source for all entries: paper PMC8659031
